Recorded Relative citrullination activity by entry
- system under test: full-length recombinant human or mouse PAD4 (Example 4; which of the two is not told for the result)
- experimental details: cell-based or functional assay

Answered examples (2):
**Q:** Would you mind telling me what Relative citrullination activity value was observed for G8 (antibody, IgG1, V domains shown, Chicken variable regions in mouse chimeric antibody (IgG1) expression vectors; also called anti-PAD4 antibody G8; A11 etc) VH: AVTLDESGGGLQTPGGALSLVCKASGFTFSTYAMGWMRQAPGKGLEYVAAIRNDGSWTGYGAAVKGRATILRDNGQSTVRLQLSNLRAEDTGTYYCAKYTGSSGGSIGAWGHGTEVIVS VL: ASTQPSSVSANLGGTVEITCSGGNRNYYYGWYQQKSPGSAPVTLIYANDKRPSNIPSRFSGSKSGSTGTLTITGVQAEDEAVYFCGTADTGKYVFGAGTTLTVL ?
**A:** 63 relative to PBS = 100

**Q:** Query (binder): A11 (antibody, IgG1, V domains shown, Chicken variable regions in mouse chimeric antibody (IgG1) expression vectors; also called anti-PAD4 antibody A11; A11 etc) VH: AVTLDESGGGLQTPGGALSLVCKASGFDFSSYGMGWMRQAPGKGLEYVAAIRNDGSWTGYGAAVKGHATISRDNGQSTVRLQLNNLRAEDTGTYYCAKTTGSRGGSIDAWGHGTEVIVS VL: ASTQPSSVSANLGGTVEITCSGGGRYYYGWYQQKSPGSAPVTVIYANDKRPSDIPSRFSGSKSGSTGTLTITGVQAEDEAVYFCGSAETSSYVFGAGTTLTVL ; field requested: Relative citrullination activity
**A:** 64 relative to PBS = 100

Consider the record given below.
**Q:** // query Relative citrullination activity value for entry G6 (antibody, IgG1, V domains shown, Chicken variable regions in mouse chimeric antibody (IgG1) expression vectors; also called anti-PAD4 antibody G6; A11 etc) VH: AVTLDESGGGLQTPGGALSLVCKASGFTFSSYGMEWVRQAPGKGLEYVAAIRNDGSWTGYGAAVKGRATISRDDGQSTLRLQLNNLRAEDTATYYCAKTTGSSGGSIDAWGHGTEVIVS VL: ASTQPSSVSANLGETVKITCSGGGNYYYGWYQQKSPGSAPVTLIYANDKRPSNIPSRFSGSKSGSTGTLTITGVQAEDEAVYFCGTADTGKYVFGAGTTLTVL
**A:** 69 relative to PBS = 100
